- Tested on: foxtail, giant (giant foxtail, Setaria faberi)
- method_notes: Test C postemergence, visual plant response rating
- Assay type: in vivo
- measurement_parameters: Test C, postemergence, 125 g ai/ha
Give Foxtail, Giant plant response rating (0 to 100 scale) for every item shown.
Numbers only.

molecule	reading
CC(C)O/N=C(/c1c(O)c(Cl)nn(C)c1=O)c1ccc(F)c2ccccc12 [Compound 209]	90
C#CCO/N=C(\c1cc(C)cc(Cl)c1)c1c(O)c(C)nn(C)c1=O [Compound 155]	90
C#CCON=C(c1cccc(OC)c1)c1c(O)c(C)nn(C)c1=O [Compound 203]	30
CC(C)O/N=C(\c1c(O)c(Cl)nn(C)c1=O)c1ccc(F)c2ccccc12 [Compound 210]	90
CON=C(c1cc(Cl)cc(F)c1Cl)c1c(O)c(C)nn(C)c1=O [Compound 272]	90
C#CCO/N=C(\c1cc(Cl)cc(Br)c1)c1c(O)c(C)nn(C)c1=O [Compound 292]	100
C#CCON=C(c1cc(Cl)cc(Cl)c1Cl)c1c(O)c(C)nn(C)c1=O [Compound 296]	90
CON=C(c1cc(F)cc(F)c1F)c1c(O)c(C)nn(C)c1=O [Compound 226]	40

# per-item lookup of Foxtail, Giant plant response rating (0 to 100 scale); items listed below
1. CO/N=C(\c1cc(Cl)cc(Br)c1)c1c(O)c(C)nn(C)c1=O [Compound 157]
2. CO/N=C(/c1c(O)c(C)nn(C)c1=O)c1cc(SC)cc2ccccc12 [Compound 298]
3. CCCCON=C(c1cc(Cl)cc(Cl)c1Cl)c1c(O)c(C)nn(C)c1=O [Compound 268]
4. Cc1nn(C)c(=O)c(/C(=N/OC(C)C)c2cc(Cl)cc(Cl)c2F)c1O [Compound 179]
5. CON=C(c1cc(Cl)cc(OC)c1)c1c(O)c(C)nn(C)c1=O [Compound 175]
6. C#CCO/N=C(\c1c(O)c(C)nn(C)c1=O)c1cc(Cl)cc2ccccc12 [Compound 191]
7. Cc1nn(C)c(=O)c(/C(=N/OCCO)c2cccc3cc(Cl)ccc23)c1O [Compound 240]

1: 90; 2: 0; 3: 90; 4: 100; 5: 80; 6: 80; 7: 0

# per-item lookup of Foxtail, Giant plant response rating (0 to 100 scale); items listed below
1. CO/N=C(/c1c(O)c(C)nn(C)c1=O)c1cccc2cc(SC)ccc12 [Compound 297]
2. CON=C(c1cc(Cl)cc(Cl)c1)c1c(O)c(C)nn(C)c1=O [Compound 189]
3. Cc1nn(C)c(=O)c(/C(=N/OC(C)C)c2cc(Cl)cc(Cl)c2Cl)c1O [Compound 185]
4. CON=C(c1cc(Cl)cc(Cl)c1)c1c(O)c(C)nn(C)c1=O [Compound 188]
5. CON=C(c1cc(Cl)cc(Cl)c1Cl)c1c(O)c(C)nn(C)c1=O [Compound 213]
6. C#CCO/N=C(/c1cccc(/C=C\Cl)c1)c1c(O)c(C)nn(C)c1=O [Compound 261]

0
80
90
90
80
50

# per-item lookup of Foxtail, Giant plant response rating (0 to 100 scale); items listed below
1. C#CCO/N=C(\c1ccc(F)c(Cl)c1)c1c(O)c(C)nn(C)c1=O [Compound 230]
2. C#CCON=C(c1cccc(OCC)c1)c1c(O)c(C)nn(C)c1=O [Compound 199]
3. CC(C)O/N=C(/c1c(O)c(Cl)nn(C)c1=O)c1cc(Br)cc2ccccc12 [Compound 232]
4. CO/N=C(\c1cc(Cl)c(F)c(Cl)c1)c1c(O)c(C)nn(C)c1=O [Compound 290]
5. CO/N=C(/c1c(O)c(C)nn(C)c1=O)c1cccc2cc(Cl)ccc12 [Compound 301]
6. Cc1nn(C)c(=O)c(C(=NOCC2CC2)c2cc(Cl)cc(Cl)c2Cl)c1O [Compound 293]

[30, 20, 80, 0, 70, 80]

# per-item lookup of Foxtail, Giant plant response rating (0 to 100 scale); items listed below
1. C#CCO/N=C(/c1cccc(Br)c1)c1c(O)c(C)nn(C)c1=O [Compound 277]
2. CON=C(c1cc(Cl)cc(Cl)c1F)c1c(O)c(C)nn(C)c1=O [Compound 299]
3. CCO/N=C(\c1cc(Cl)cc(Cl)c1Cl)c1c(O)c(C)nn(C)c1=O [Compound 186]

1: 60; 2: 100; 3: 90
